- target.under.test: T1, O3-bH
- T1 chain: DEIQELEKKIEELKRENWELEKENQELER
- assay.info: two-hybrid library CCNG1;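 also: natural log of median RNA to DNA barcode read ratio; higher means stronger binding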
Kind request: treat -0.02 as inclusive, so interaction score at -0.02 or higher is fulfilled, anything lower is not fulfilled.

{"binder": "DKIQELKKEIEELERENWELEKENQELER [O11-bH]", "category": "fulfilled"}
{"binder": "DEIQELEKKIEELKRKNWELKKKNQELKR [O12-bH]", "category": "fulfilled"}
{"binder": "DKIQELKKKNEELKREIWELEKKNQELKR [O16-bH]", "category": "fulfilled"}
{"binder": "DKNQELKKENEELEREIWELEKEIQELER [O1-bH]", "category": "not fulfilled"}
{"binder": "DKNQELKKKIEELKRKNWELKKEIQELER [O13-bH]", "category": "fulfilled"}

Textbook exercise: given the entry DENQELEKKNEELKRKIWELKKKIQELKR [O2-bH] , state whether its interaction score is greater than or equal to -0.02.
fulfilled

Lookup DENQELEKEIEELERENWELEKKIQELKR [O14-bH]
fulfilled

Lookup DEIQELEKENEELERKIWELKKENQELER [O15-bH]
not fulfilled

Lookup DEIQELEKKIEELKRENWELEKENQELER [O3-bH]
not fulfilled

Lookup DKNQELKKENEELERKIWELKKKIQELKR [O10-bH]
fulfilled
